The values you see were collected from the supplement of paper PMC9233669.

- Test system: biotinyl-Phe-oxazolone
- assay.remarks: self-aminoacylation, catalytic enhancement (BFO) (fold over background); higher = more active; k-Seq, kA / k0A0; sequences stand for … in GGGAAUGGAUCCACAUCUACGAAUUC…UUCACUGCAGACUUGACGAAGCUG
This sample holds only a part of the variants without activity.
Would you please tag the item Criterion met when its self-aminoacylation is 3 or above, and Criterion not met when it is below?

- polymer.sequence: "AAGUUUGCUAAUUCUCGCAAG [Fam3.1 aminoacylation ribozyme variant]"
  system: "biotinyl-Phe-oxazolone"
  cat: "Criterion not met"
- polymer.sequence: "CUACUUCAAUCAAUGGGUCUG [Fam1A.1 aminoacylation ribozyme variant]"
  system: "biotinyl-Phe-oxazolone"
  cat: "Criterion not met"
- polymer.sequence: "AAGUUUGCUAGUAGUCCCAAG [Fam3.1 aminoacylation ribozyme variant]"
  system: "biotinyl-Phe-oxazolone"
  cat: "Criterion not met"
- polymer.sequence: "AUUCACGUAAGUCAUCGGGUG [Fam2.2 aminoacylation ribozyme variant]"
  system: "biotinyl-Phe-oxazolone"
  cat: "Criterion met"
- polymer.sequence: "AUUCACCUAGGUCAUGUGGUG [Fam2.2 aminoacylation ribozyme variant]"
  system: "biotinyl-Phe-oxazolone"
  cat: "Criterion met"

Ask | # check: self-aminoacylation of AUUACCCUCAUCAUCGAGUGA [Fam2.1 aminoacylation ribozyme variant] is greater than or equal to 3
Reply | Criterion met

Ask | # check: self-aminoacylation of CCACACAUUAAGCAAUCGGUC [Fam1B.1 aminoacylation ribozyme variant] is greater than or equal to 3
Reply | Criterion not met

Ask | # check: self-aminoacylation of ACUACCCUGGUCAUCGAGGGA [Fam2.1 aminoacylation ribozyme variant] is greater than or equal to 3
Reply | Criterion not met

Ask | # check: self-aminoacylation of CAGUUUGGUAAUAGUCGCAAG [Fam3.1 aminoacylation ribozyme variant] is greater than or equal to 3
Reply | Criterion not met
